# Test system: Botryococcus braunii UTEX 572
# Assay overview: Different fixed carbon sources on heterotrophic growth, visual score
# Format: cell-based
# Set-up: key: Growth was scored with +'s by visual examination of the cultures; ++: Growth was scored with +'s by visual examination of the cultures; +++: Growth was scored with +'s by visual examination of the cultures; ++++: Growth was scored with +'s by visual examination of the cultures; +++++: Growth was scored with +'s by visual examination of the cultures
# Condition details: UTEX 572, 1% carbon source in 1 ml BG11, dark, 4 weeks
Reported property: heterotrophic growth score, 1%

INSERT INTO results (compound, reported_property, reported_result) VALUES
  ('O=C(CO)[C@@H](O)[C@H](O)[C@H](O)CO', 'heterotrophic growth score, 1%', '++'),
  ('O=C[C@H](O)[C@@H](O)[C@@H](O)[C@H](O)CO', 'heterotrophic growth score, 1%', '+++'),
  ('OCC(O)CO', 'heterotrophic growth score, 1%', '+'),
  ('CC(=O)[O-].[Na+] [acetate, sodium acetate]', 'heterotrophic growth score, 1%', '+'),
  ('O=C[C@H](O)[C@@H](O)[C@H](O)[C@H](O)CO', 'heterotrophic growth score, 1%', '+++++');

Next compound, please.
Entry `O=C[C@@H](O)[C@H](O)[C@H](O)CO` : reported heterotrophic growth score, 1% = ?
+
